Source: paper PMC11363325

System: rgPR8(H275Y), A/Puerto Rico/8/1934 with the H275Y mutation in NA
pEC50: −log10 of the molar value.
attribute.measured: pEC50

compound	attribute.measured	relation.qualifier	result.number
CCC(CC)O[C@@H]1C=C(C(=O)O)C[C@H](N=C(N2C(=O)[C@H]3CC=CC[C@H]3C2=O)N2C(=O)[C@H]3CC=CC[C@H]3C2=O)[C@H]1NC(C)=O [OSC-GCDI(Ce)]	pEC50	=	5.72
CCC(CC)O[C@@H]1C=C(C(=O)O)C[C@H](N=C(N2C(=O)C3CCC(C)CC3C2=O)N2C(=O)C3CCC(C)CC3C2=O)[C@H]1NC(C)=O (stereo partly drawn) [OSC-GCDI(CM)]	pEC50	=	5.92
CCC(CC)O[C@@H]1C=C(C(=O)O)C[C@H](N=C(N2C(=O)CC(C)C2=O)N2C(=O)CC(C)C2=O)[C@H]1NC(C)=O (stereo partly drawn) [OSC-GCDI(M)]	pEC50	=	6.13
CCCCC1CC(=O)N(C(=N[C@H]2CC(C(=O)O)=C[C@@H](OC(CC)CC)[C@@H]2NC(C)=O)N2C(=O)CC(CCCC)C2=O)C1=O (stereo partly drawn) [OSC-GCDI(B)]	pEC50	=	5.47
CCC(CC)O[C@@H]1C=C(C(=O)O)C[C@H](N=C(N2C(=O)CCC2=O)N2C(=O)CCC2=O)[C@H]1NC(C)=O [OSC-GCDI(S)]	pEC50	=	6.00
NC(=O)c1ncn([C@@H]2O[C@H](CO)[C@@H](O)[C@H]2O)n1 [RBV, Ribavirin, reference compound]	pEC50	=	4.78
CCC(CC)O[C@@H]1C=C(C(=O)O)C[C@H](N=C(N2C(=O)[C@H]3CCCC[C@H]3C2=O)N2C(=O)[C@H]3CCCC[C@H]3C2=O)[C@H]1NC(C)=O [OSC-GCDI(C)]	pEC50	=	6.31
CCC(CC)O[C@@H]1C=C(C(=O)O)C[C@H](NC(=N)N)[C@H]1NC(C)=O [GOC, guanidino oseltamivir carboxylate, reference compound]	pEC50	=	7.05
CCC(CC)O[C@@H]1C=C(C(=O)O)C[C@H](N=C(N2C(=O)c3ccccc3C2=O)N2C(=O)c3ccccc3C2=O)[C@H]1NC(C)=O [OSC-GCDI(P)]	pEC50	=	6.32
CCC(CC)O[C@@H]1C=C(C(=O)O)C[C@H](N=C(N2C(=O)CC(C)(C)C2=O)N2C(=O)CC(C)(C)C2=O)[C@H]1NC(C)=O [OSC-GCDI(D)]	pEC50	=	5.82
NC12CC3CC(CC(C3)C1)C2 [AMT, Amantadine, reference compound]	pEC50	<	4.00
CCC(CC)O[C@@H]1C=C(C(=O)O)C[C@H](N)[C@H]1NC(C)=O [OSC, oseltamivir carboxylate, reference compound]	pEC50	=	4.86
